- Study target: RARα (Homo sapiens)
- Construct: His6-3C-NusA (cleaved yes); made in house; host or cells: E. coli BL21(DE3), pET50b vector
- Sequence (P10276 183-417 limits assumed): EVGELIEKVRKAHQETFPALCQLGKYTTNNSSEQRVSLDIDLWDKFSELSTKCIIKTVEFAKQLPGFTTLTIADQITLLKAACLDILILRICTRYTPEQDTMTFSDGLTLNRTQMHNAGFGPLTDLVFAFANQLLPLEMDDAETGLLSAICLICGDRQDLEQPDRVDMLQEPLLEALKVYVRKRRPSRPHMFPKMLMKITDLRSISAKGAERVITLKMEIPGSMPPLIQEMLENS
- Assay comment: Fluorescence competition binding assay (displacement of DC271)
- Study conditions: experimental binding free energy from K D, ΔGexp=−RT ln K, 298.1 K
Assignment: determine reported ΔGEXP RARα for the given compounds.

The cases that follow already have their ΔGEXP RARα on record.
{"Smiles data": "CC1(C)CCC(C)(C)c2cc(C#Cc3ccc(C(=O)O)c(F)c3)ccc21", "Reading": "-10.8 kcal/mol"}
{"Smiles data": "Cc1cc2c(cc1C#Cc1ccc(C(=O)O)cn1)C(C)(C)CCC2(C)C", "Reading": "-10.0 kcal/mol"}
{"Smiles data": "CC1(C)CCC(C)(C)c2cc(C#Cc3cnc(C(=O)O)cn3)ccc21", "Reading": "-8.23 kcal/mol"}
{"Smiles data": "COc1cc2c(cc1C#Cc1cc(F)c(C(=O)O)c(F)c1)C(C)(C)CCC2(C)C", "Reading": "-9.55 kcal/mol"}
{"Smiles data": "Cc1sc(-c2ccc(C(=O)O)cc2)nc1-c1cnc2c(n1)C(C)(C)CCC2(C)C", "Reading": "-8.58 kcal/mol"}
{"Smiles data": "CC1(C)CCC(C)(C)c2nc(C#Cc3ccc(C(=O)O)cc3)cnc21", "Reading": "-9.29 kcal/mol"}

Could I get ΔGEXP RARα for every one of these entries?
1. Cc1cc2c(cc1C#Cc1ccc(C(=O)O)c(F)c1)C(C)(C)CCC2(C)C
2. CC1(C)CCC(C)(C)c2cc(C#Cc3ccc(C(=O)O)cc3F)ccc21

Ans.
-10.40 kcal/mol
-10.3 kcal/mol

====

- Study target: RARγ (Homo sapiens, UniProt P13631)
- Construct: His6-3C-SUMO (cleaved yes); made in house; host or cells: E. coli BL21(DE3), pOPINS3C vector
- Sequence (P13631 185-419 limits assumed): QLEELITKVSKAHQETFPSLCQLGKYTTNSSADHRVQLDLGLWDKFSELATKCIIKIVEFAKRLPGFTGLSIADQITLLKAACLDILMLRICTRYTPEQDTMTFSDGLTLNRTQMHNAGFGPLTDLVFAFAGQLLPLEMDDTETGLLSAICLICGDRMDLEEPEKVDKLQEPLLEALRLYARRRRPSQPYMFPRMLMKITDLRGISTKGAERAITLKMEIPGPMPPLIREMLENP
- Assay comment: Fluorescence competition binding assay (displacement of DC271)
- Study conditions: experimental binding free energy from K D, ΔGexp=−RT ln K, 298.1 K
Endpoint: ΔGEXP RARγ

{"Molecule": "Cc1sc(-c2ccc(C(=O)O)c(F)c2)nc1-c1cnc2c(n1)C(C)(C)CCC2(C)C [Compound 42]", "Study target": "RARγ (Homo sapiens, UniProt P13631)", "ΔGEXP RARγ": "-9.46 kcal/mol"}
{"Molecule": "CC1(C)CCC(C)(C)c2nc(C#Cc3ccc(C(=O)O)cc3)cnc21 [Compound 30]", "Study target": "RARγ (Homo sapiens, UniProt P13631)", "ΔGEXP RARγ": "-9.09 kcal/mol"}
{"Molecule": "COc1cc2c(cc1C#Cc1ncc(C(=O)O)cn1)C(C)(C)CCC2(C)C [Compound 29]", "Study target": "RARγ (Homo sapiens, UniProt P13631)", "ΔGEXP RARγ": "Non-competitive Binding"}
{"Molecule": "COc1cc2c(cc1C#Cc1cc(F)c(C(=O)O)c(F)c1)C(C)(C)CCC2(C)C [Compound 22]", "Study target": "RARγ (Homo sapiens, UniProt P13631)", "ΔGEXP RARγ": "-8.81 kcal/mol"}
{"Molecule": "Cc1sc(-c2ccc(C(=O)O)cc2)nc1-c1cnc2c(n1)C(C)(C)CCC2(C)C [Compound 40]", "Study target": "RARγ (Homo sapiens, UniProt P13631)", "ΔGEXP RARγ": "-8.44 kcal/mol"}

Could I get ΔGEXP RARγ for every one of these entries?
1. CC1(C)CCC(C)(C)c2cc(C#Cc3ccc(C(=O)O)cc3Cl)ccc21 [Compound 16]
2. Cc1sc(-c2ccc(C(=O)O)cn2)nc1-c1cnc2c(n1)C(C)(C)CCC2(C)C [Compound 41]
3. Cc1cc2c(cc1C#Cc1ccc(C(=O)O)c(F)c1)C(C)(C)CCC2(C)C [Compound 17]

Ans.
["-10.4 kcal/mol", "Non-competitive Binding", "-10.5 kcal/mol"]

====

- Study target: RARα (Homo sapiens, UniProt P10276)
- Construct: His6-3C-NusA (cleaved yes); made in house; host or cells: E. coli BL21(DE3), pET50b vector
- Assay comment: Fluorescence competition binding assay (displacement of DC271)
- Study conditions: 100 nM RAR and DC271 on plate; read-out: Binding KD (± SD) RARα
Strictly below 200 nM in Kd: Condition met. Otherwise: Condition not met.

For orientation, consider the following solved cases.
{"Compound": "Cc1cc2c(cc1C#Cc1ccc(C(=O)O)c(F)c1)C(C)(C)CCC2(C)C", "Assigned category": "Condition met"}
{"Compound": "Cc1sc(-c2ccc(C(=O)O)c(F)c2)nc1-c1cnc2c(n1)C(C)(C)CCC2(C)C", "Assigned category": "Condition met"}
{"Compound": "CC1(C)CCC(C)(C)c2cc(C#Cc3ccc(C(=O)O)c(F)c3)ccc21", "Assigned category": "Condition met"}
{"Compound": "CC1(C)CCC(C)(C)c2cc(C#Cc3cnc(C(=O)O)cn3)ccc21", "Assigned category": "Condition not met"}

Turning now to a further record.
Qu. Find out if reported Kd for `COc1cc2c(cc1C#Cc1ccc(C(=O)O)cn1)C(C)(C)CCC2(C)C` is less than 200 nM
Ans. Condition not met

====

- Study target: RARα (Homo sapiens, UniProt P10276)
- Construct: His6-3C-NusA (cleaved yes); made in house; host or cells: E. coli BL21(DE3), pET50b vector
- Assay comment: Fluorescence competition binding assay (displacement of DC271)
- Study conditions: 100 nM RAR and DC271 on plate; read-out: Binding KD (± SD) RARα
pKd: −log10 of the molar value.
Is pKd at least 8? Then label 1. If not, label 0.

{"Smiles data": "CC1(C)CCC(C)(C)c2cc(C#Cc3ccc(C(=O)O)cc3F)ccc21", "Assigned category": "label 0"}
{"Smiles data": "CC1(C)CCC(C)(C)c2cc(C#Cc3cc(F)c(C(=O)O)c(F)c3)ccc21", "Assigned category": "label 1"}
{"Smiles data": "Cc1cc2c(cc1C#Cc1ncc(C(=O)O)cn1)C(C)(C)CCC2(C)C", "Assigned category": "label 0"}

Qu. Dear colleague, could you confirm whether `CC1(C)CCC(C)(C)c2nc(C#Cc3ccc(C(=O)O)cc3)cnc21` has pKd at or above 8?
Ans. label 0

====

- Study target: RARα (Homo sapiens, UniProt P10276)
- Construct: His6-3C-NusA (cleaved yes); made in house; host or cells: E. coli BL21(DE3), pET50b vector
- Assay comment: Fluorescence competition binding assay (displacement of DC271)
- Study conditions: experimental binding free energy from K D, ΔGexp=−RT ln K, 298.1 K
Strictly below -9 kcal/mol in ΔGEXP RARα: MET. Otherwise: NOT MET.

For orientation, consider the following solved cases.
{"Molecule": "Cc1sc(-c2ccc(C(=O)O)cc2)nc1-c1ccc2c(c1)C(C)(C)CCC2(C)C [GZ25, reference compound]", "Study target": "RARα (Homo sapiens, UniProt P10276)", "Assigned category": "NOT MET"}
{"Molecule": "Cc1cc2c(cc1C#Cc1ccc(C(=O)O)cc1F)C(C)(C)CCC2(C)C [Compound 18]", "Study target": "RARα (Homo sapiens, UniProt P10276)", "Assigned category": "MET"}

Turning now to a further record.
Qu. Find out if reported ΔGEXP RARα for Cc1sc(-c2ccc(C(=O)O)cc2F)nc1-c1cnc2c(n1)C(C)(C)CCC2(C)C [Compound 43] is less than -9 kcal/mol
Ans. NOT MET

====

- Study target: RARα (Homo sapiens, UniProt P10276)
- Construct: His6-3C-NusA (cleaved yes); made in house; host or cells: E. coli BL21(DE3), pET50b vector
- Sequence (P10276 183-417 limits assumed): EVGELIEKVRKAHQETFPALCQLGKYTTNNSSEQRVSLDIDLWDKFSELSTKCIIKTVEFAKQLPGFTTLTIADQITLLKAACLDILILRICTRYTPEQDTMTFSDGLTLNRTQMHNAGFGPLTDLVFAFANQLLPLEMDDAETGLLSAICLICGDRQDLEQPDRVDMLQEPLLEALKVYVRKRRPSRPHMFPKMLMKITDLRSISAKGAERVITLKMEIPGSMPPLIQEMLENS
- Assay comment: Fluorescence competition binding assay (displacement of DC271)
- Study conditions: 100 nM RAR and DC271 on plate; read-out: Binding KD (± SD) RARα
Endpoint: Kd (µM)
Give bare numbers, in µM.

The cases that follow already have their Kd on record.
{"Molecule": "Cc1sc(-c2ccc(C(=O)O)cc2)nc1-c1ccc2c(c1)C(C)(C)CCC2(C)C [GZ25, reference compound]", "Kd (µM)": 0.688}
{"Molecule": "COc1cc2c(cc1C#Cc1cc(F)c(C(=O)O)c(F)c1)C(C)(C)CCC2(C)C", "Kd (µM)": 0.105}

The record that follows has no Kd shown yet.
Qu. Request the reported Kd associated with `Cc1cc2c(cc1C#Cc1ccc(C(=O)O)cn1)C(C)(C)CCC2(C)C`
Ans. 0.0483
